All values here come from patent US4638088A.

Test system: Heliothis virescens
test-details: Tobacco Budworm and Cotton Bollworm Leaf Spray Bait Test (tobacco budworm)
Type: in vivo
condition-set: 120 h, read-out: LC50 values, Heliothis Virescens
quantity-measured: LC50 (µg/mL)
Give a bare numeral; the unit µg/mL is implied.

Consider the following illustrative entries.
Cc1cc(NC(=O)NC(=O)c2ccccc2Cl)c(C)c(Cl)c1Oc1ccccc1-c1ccccc1 = 4
O=C(NC(=O)c1c(F)cccc1F)Nc1cc(Cl)c(OCc2ccccc2-c2ccccc2)c(Cl)c1 = 16
Cc1cc(NC(=O)NC(=O)c2c(F)cccc2F)c(C)c(Cl)c1Oc1ccc(Cl)cc1-c1ccccc1 = 1.9
O=C(NC(=O)c1c(F)cccc1F)Nc1ccc(Cl)cc1 [Comparative Example A, reference compound] = 31
O=C(NC(=O)c1c(F)cccc1F)Nc1cc(Cl)c(Oc2cccc3ccccc23)c(Cl)c1 [Comparative Example K, reference compound] = 500

Next compound, LC50 to be filled in.
Notebook entry, Heliothis virescens assay: LC50 of `Cc1cc(NC(=O)NC(=O)c2c(F)cccc2F)c(C)c(Cl)c1Oc1ccccc1-c1ccccc1` = ?
9

* * *

# LC50 values compiled below
System: Heliothis zea
test-details: Tobacco Budworm and Cotton Bollworm Leaf Spray Bait Test (cotton bollworm)
Type: in vivo
condition-set: Helicoverpa zea, 120 h; Heliothis Zea; second instar larvae; five days; read-out: LC50 values, Heliothis Zea
Give a bare numeral; the unit µg/mL is implied.

Consider the following illustrative entries.
Cc1cc(NC(=O)NC(=O)c2c(F)cccc2F)c(C)c(Cl)c1Oc1ccccc1-c1ccccc1 = 2.2
O=C(NC(=O)c1c(F)cccc1F)Nc1cc(Cl)c(OCc2ccccc2-c2ccccc2)c(Cl)c1 = 5
Cc1cc(NC(=O)NC(=O)c2ccccc2Cl)c(C)c(Cl)c1Oc1ccccc1-c1ccccc1 = 1.7
O=C(NC(=O)c1c(F)cccc1F)Nc1cc(Cl)c(Oc2cccc3ccccc23)c(Cl)c1 [Comparative Example K, reference compound] = 30

Next compound, LC50 to be filled in.
Notebook entry, Heliothis zea assay: LC50 of `Cc1cc(NC(=O)NC(=O)c2c(F)cccc2F)c(C)c(Cl)c1Oc1ccc(Cl)cc1-c1ccccc1` = ?
1.6
